- assayed_target: UniProt P30969
- Sequence (whole entry): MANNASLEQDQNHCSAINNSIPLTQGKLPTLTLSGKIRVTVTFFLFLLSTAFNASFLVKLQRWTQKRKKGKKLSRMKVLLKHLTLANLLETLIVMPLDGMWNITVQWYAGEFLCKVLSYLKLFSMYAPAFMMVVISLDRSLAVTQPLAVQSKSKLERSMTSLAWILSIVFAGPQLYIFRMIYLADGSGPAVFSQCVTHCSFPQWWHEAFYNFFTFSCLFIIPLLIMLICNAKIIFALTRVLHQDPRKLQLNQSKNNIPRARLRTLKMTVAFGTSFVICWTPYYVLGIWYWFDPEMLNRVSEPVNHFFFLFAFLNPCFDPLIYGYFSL
- experiment: Duration of action, measured using castrated male rat assay to inhibit luteinizing hormone release.; fully active at 24 hr but not at 48 hr
- Assay type: functional
measure: Duration of action (h)
Provide only the numeric value, understood in h.

State, in one line, measured Duration of action of `CC(=O)N[C@H](Cc1ccc2ccccc2c1)C(=O)N[C@H](Cc1ccc(Cl)cc1)C(=O)N[C@H](Cc1cccnc1)C(=O)N[C@@H](CO)C(=O)N[C@@H](CCCCNc1n[nH]c(N)n1)C(=O)N[C@H](CCCCNc1n[nH]c(N)n1)C(=O)N[C@@H](CC(C)C)C(=O)N[C@@H](CCCCNC(C)C)C(=O)N1CCC[C@H]1C(=O)N[C@H](C)N`
24

State, in one line, measured Duration of action of `CC(=O)N[C@@H](Cc1c[nH]cn1)C(=O)Nc1ccc(C[C@H](NC(=O)[C@H](CO)NC(=O)[C@@H](Cc2cccnc2)NC(=O)[C@@H](Cc2ccc(Cl)cc2)NC(=O)[C@@H](Cc2ccc3ccccc3c2)NC(C)=O)C(=O)N[C@H](Cc2ccc(NC(=O)[C@@H](Cc3c[nH]cn3)NC(C)=O)cc2)C(=O)N[C@@H](CC(C)C)C(=O)N[C@@H](CCCCNC(C)C)C(=O)N2CCC[C@H]2C(=O)N[C@H](C)N)cc1`
24

* * *

- assayed_target: Gonadotropin-releasing hormone receptor (Rattus norvegicus)
- experiment: Duration of action, measured using castrated male rat assay to inhibit luteinizing hormone release.; fully active at 24 hr but not at 48 hr
- Type: functional
Exercise: state measured Duration of action for each of the molecules provided.
Give the value; after it, write the unit.

State, in one line, measured Duration of action of `CC(=O)N[C@H](Cc1ccc2ccccc2c1)C(=O)N[C@H](Cc1ccc(Cl)cc1)C(=O)N[C@H](Cc1cccnc1)C(=O)N[C@@H](CO)C(=O)N(C)[C@@H](Cc1ccc(Nc2n[nH]c(N)n2)cc1)C(=O)N[C@H](Cc1ccc(Nc2n[nH]c(N)n2)cc1)C(=O)N[C@@H](CC(C)C)C(=O)N[C@@H](CCCCNC(C)C)C(=O)N1CCC[C@H]1C(=O)N[C@H](C)N`
24 h

State, in one line, measured Duration of action of `CC(=O)N[C@H](Cc1ccc2ccccc2c1)C(=O)N[C@H](Cc1ccc(Cl)cc1)C(=O)N[C@H](Cc1cccnc1)C(=O)N[C@@H](CO)C(=O)N[C@@H](Cc1ccc(NC(=O)[C@H](C)Nc2n[nH]c(N)n2)cc1)C(=O)N[C@H](Cc1ccc(NC(=O)[C@@H](C)Nc2n[nH]c(N)n2)cc1)C(=O)N[C@@H](CC(C)C)C(=O)N[C@@H](CCCCNC(C)C)C(=O)N1CCC[C@H]1C(=O)N[C@H](C)N`
24 h

State, in one line, measured Duration of action of `CC(=O)NCC(=O)Nc1ccc(C[C@H](NC(=O)[C@H](CO)NC(=O)[C@@H](Cc2cccnc2)NC(=O)[C@@H](Cc2ccc(Cl)cc2)NC(=O)[C@@H](Cc2ccc3ccccc3c2)NC(C)=O)C(=O)N[C@H](Cc2ccc(NC(=O)CNC(C)=O)cc2)C(=O)N[C@@H](CC(C)C)C(=O)N[C@@H](CCCCNC(C)C)C(=O)N2CCC[C@H]2C(=O)N[C@H](C)N)cc1`
24 h

* * *

- assayed_target: UniProtKB P30969
- experiment: In vitro potency to inhibit GnRH-mediated LH secretion by cultured pituitary cells relative to [Ac-delta-Pro1,DFpa2,DTrp36]GnRH.
- Type: functional, cell-based
- measurement_parameters: Pituitary gland cell
measure: Relative potency
Provide a numeric answer; units are not to be included.

State, in one line, measured Relative potency of `CC(=O)NCCCC[C@H](NC(=O)[C@H](CO)NC(=O)[C@@H](Cc1cccnc1)NC(=O)[C@@H](Cc1ccc(Cl)cc1)NC(=O)[C@@H](Cc1ccc2ccccc2c1)NC(C)=O)C(=O)N[C@H](CCCCNC(C)=O)C(=O)N[C@@H](CC(C)C)C(=O)N[C@@H](CCCCNC(C)C)C(=O)N1CCC[C@H]1C(=O)N[C@H](C)N`
0.36

State, in one line, measured Relative potency of `CC(=O)N[C@H](Cc1ccc2ccccc2c1)C(=O)N[C@H](Cc1ccc(Cl)cc1)C(=O)N[C@H](Cc1cccnc1)C(=O)N[C@@H](CO)C(=O)N[C@@H](Cc1ccc(Nc2n[nH]c(N)n2)cc1)C(=O)N[C@H](Cc1ccc(Nc2n[nH]c(N)n2)cc1)C(=O)N[C@@H](CC(C)C)C(=O)N[C@@H](CCCCNC(C)C)C(=O)N1CCC[C@H]1C(=O)N[C@H](C)N`
1.3

State, in one line, measured Relative potency of `CC(=O)N[C@H](Cc1ccc2ccccc2c1)C(=O)N[C@H](Cc1ccc(Cl)cc1)C(=O)N[C@H](Cc1cccnc1)C(=O)N[C@@H](CO)C(=O)N[C@@H](Cc1ccc(Nc2n[nH]c(N)n2)cc1)C(=O)N[C@H](Cc1ccc(Nc2n[nH]c(N)n2)cc1)C(=O)N[C@@H](CC(C)C)C(=O)N[C@@H](Cc1ccc(CNC(C)C)cc1)C(=O)N1CCC[C@H]1C(=O)N[C@H](C)N`
1.1

* * *

- assayed_target: Gonadotropin-releasing hormone receptor (Rattus norvegicus) (UniProt P30969)
- experiment: In vitro potency to inhibit GnRH-mediated LH secretion by cultured pituitary cells relative to [Ac-delta-Pro1,DFpa2,DTrp36]GnRH.
- Assay type: functional, cell-based
- measurement_parameters: Pituitary gland cell
Lab note: cut-off is 0.5. Strictly less in Relative potency is Met. Exactly 0.5 or more is Not met.

Is 0.5 strictly greater than the compound's reported Relative potency? compound: `CC(=O)N[C@H](Cc1ccc2ccccc2c1)C(=O)N[C@H](Cc1ccc(Cl)cc1)C(=O)N[C@H](Cc1cccnc1)C(=O)N[C@@H](CO)C(=O)N[C@@H](Cc1ccc(NC(=O)CCCCCNc2n[nH]c(N)n2)cc1)C(=O)N[C@H](Cc1ccc(NC(=O)CCCCCNc2n[nH]c(N)n2)cc1)C(=O)N[C@@H](CC(C)C)C(=O)N[C@@H](CCCCNC(C)C)C(=O)N1CCC[C@H]1C(=O)N[C@H](C)N`
Met

Is 0.5 strictly greater than the compound's reported Relative potency? compound: `CC(=O)N[C@H](Cc1ccc2ccccc2c1)C(=O)N[C@H](Cc1ccc(Cl)cc1)C(=O)N[C@H](Cc1cccnc1)C(=O)N[C@@H](CO)C(=O)N[C@@H](Cc1ccc(N)cc1)C(=O)N[C@H](Cc1ccc(N)cc1)C(=O)N[C@@H](CC(C)C)C(=O)N[C@@H](CCCCNC(C)C)C(=O)N1CCC[C@H]1C(=O)N[C@H](C)N`
Not met

Is 0.5 strictly greater than the compound's reported Relative potency? compound: `CC(=O)Nc1ccc(C[C@@H](NC(=O)[C@H](Cc2ccc(O)cc2)NC(=O)[C@H](CO)NC(=O)[C@@H](Cc2cccnc2)NC(=O)[C@@H](Cc2ccc(Cl)cc2)NC(=O)[C@@H](Cc2ccc3ccccc3c2)NC(C)=O)C(=O)N[C@@H](CC(C)C)C(=O)N[C@@H](CCCCNC(C)C)C(=O)N2CCC[C@H]2C(=O)N[C@H](C)N)cc1`
Not met

Is 0.5 strictly greater than the compound's reported Relative potency? compound: `CC(=O)N[C@H](Cc1ccc2ccccc2c1)C(=O)N[C@H](Cc1ccc(Cl)cc1)C(=O)N[C@H](Cc1cccnc1)C(=O)N[C@@H](CO)C(=O)N[C@@H](CCCCNc1n[nH]c(N)n1)C(=O)N[C@H](CCCCNc1n[nH]c(N)n1)C(=O)N[C@@H](CC(C)C)C(=O)N[C@@H](CCCCNC(C)C)C(=O)N1CCC[C@H]1C(=O)N[C@H](C)N`
Met

Is 0.5 strictly greater than the compound's reported Relative potency? compound: `CC(=O)N[C@H](Cc1ccc2ccccc2c1)C(=O)N[C@H](Cc1ccc(Cl)cc1)C(=O)N[C@H](Cc1cccnc1)C(=O)N[C@@H](CO)C(=O)N[C@@H](Cc1ccc(NC(=O)CCCNc2n[nH]c(N)n2)cc1)C(=O)N[C@H](Cc1ccc(NC(=O)CCCNc2n[nH]c(N)n2)cc1)C(=O)N[C@@H](CC(C)C)C(=O)N[C@@H](CCCCNC(C)C)C(=O)N1CCC[C@H]1C(=O)N[C@H](C)N`
Met
